- Experimental Target: Proto-oncogene tyrosine-protein kinase receptor Ret (Homo sapiens);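 also: each listed value is an averaged inhibition figure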
- Condition Parameters: at 1 µM
Each entry falls in a class defined on inhibition; the bands are bin A: < 6%; bin B: ≥ 6% and < 20%; bin C: ≥ 20%

The following molecules have reported results that may help.
• Fc1ccc(-c2nn3ncccc3c2-c2ccnc(Nc3ccc4c(c3)OCCO4)n2)cc1 = bin C
• Fc1ccc(-c2cc(-c3c[nH]nc3-c3ccccn3)ccn2)cc1 = bin A
• NS(=O)(=O)c1ccc(Nc2ncc(-c3ccccc3)o2)cc1 = bin B
• NS(=O)(=O)c1ccc(N/N=C2\C(=O)Nc3ccc4ncccc4c32)cc1 = bin C
• Cc1ccc(O)cc1Nc1ccnc2cc(-c3ccccn3)ccc12 = bin C

# bin label for c1cc(-c2cnn3nc(N4CCOCC4)ccc23)nc(NC2CC2)n1 bin B

# bin label for CCn1c(-c2nonc2N)nc2ccccc21 bin A

# bin label for COc1cccc(-n2ncc3c(N/N=C/c4ccc(F)cc4)ncnc32)c1 bin B

FYI, the data here is from ChEMBL document CHEMBL1961873.
